biological target: T1, bacterially produced human IL-6 (human, UniProt P05231 30-212); assay: SPR (Biacore), periplasmic Fab
T1 construct: Immobilised on the Biacore chip; also called BACT IL-6 (2-1); bactIL-6
measured-attribute: fold improvement of kd over 28A6 (parental) (fold)
Give just the numeric value; fold need not be written.

Please review the following examples before continuing.
[
  {
    "binder": "55E10 (Fab, V domains shown, Periplasmic Fab; Suffix 'g1' not explained; also called 55E10g1) VH: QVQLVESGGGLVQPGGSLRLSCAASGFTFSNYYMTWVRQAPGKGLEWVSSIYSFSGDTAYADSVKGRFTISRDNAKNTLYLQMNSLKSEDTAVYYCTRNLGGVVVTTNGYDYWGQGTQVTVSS VL: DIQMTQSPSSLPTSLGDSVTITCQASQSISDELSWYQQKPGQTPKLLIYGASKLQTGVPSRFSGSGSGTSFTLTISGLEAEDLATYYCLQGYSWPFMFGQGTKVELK",
    "result-units": "fold",
    "number": 2.92
  },
  {
    "binder": "55C11 (Fab, V domains shown, Periplasmic Fab; Suffix 'f' not explained; also called 55C11f) VH: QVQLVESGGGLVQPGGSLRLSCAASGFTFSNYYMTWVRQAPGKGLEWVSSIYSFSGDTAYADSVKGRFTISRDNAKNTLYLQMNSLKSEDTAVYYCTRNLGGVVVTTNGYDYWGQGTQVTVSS VL: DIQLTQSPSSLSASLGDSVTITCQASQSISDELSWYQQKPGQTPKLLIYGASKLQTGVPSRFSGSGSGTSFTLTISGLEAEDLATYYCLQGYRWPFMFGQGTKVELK",
    "result-units": "fold",
    "number": 2.56
  },
  {
    "binder": "48H1 (Fab, V domains shown, Periplasmic Fab; Suffix 'g2, R4' not explained; also called 48H1g2, R4) VH: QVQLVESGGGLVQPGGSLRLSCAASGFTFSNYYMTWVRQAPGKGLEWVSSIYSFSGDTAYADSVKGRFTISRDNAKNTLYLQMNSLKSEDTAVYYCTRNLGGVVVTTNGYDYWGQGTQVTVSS VL: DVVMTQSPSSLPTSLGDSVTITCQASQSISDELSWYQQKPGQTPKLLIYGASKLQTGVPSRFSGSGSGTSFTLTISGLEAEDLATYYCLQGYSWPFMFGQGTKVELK",
    "result-units": "fold",
    "number": 2.53
  }
]

Proceeding to the next binder to report its fold improvement of kd over 28A6 (parental).
What does the data say about its fold improvement of kd over 28A6 (parental)? Entry: 55A11 (Fab, V domains shown, Periplasmic Fab; Suffix 'd' of the label not explained; also called 55A11d) VH: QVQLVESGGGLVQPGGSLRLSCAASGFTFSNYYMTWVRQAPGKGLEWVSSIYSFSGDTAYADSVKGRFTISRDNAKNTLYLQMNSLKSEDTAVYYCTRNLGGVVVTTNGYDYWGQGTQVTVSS VL: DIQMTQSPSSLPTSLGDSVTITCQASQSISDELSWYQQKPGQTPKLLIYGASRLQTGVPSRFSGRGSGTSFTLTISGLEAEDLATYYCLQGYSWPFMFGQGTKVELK
2.63
